src = ChEMBL document CHEMBL5625167

Would you kindly list CC50 at 48 h for each of these compounds?
Experiment: Cytotoxicity against human HepG2 cells assessed as reduction in cell population incubated for 48 hrs by MTT assay
Format: toxicity, cell-based
One number for each entry, in µM.

Please review the following examples before continuing.
Q. Data request, read-out CC50 at 48 h, for CCCCCCCCCCCCCCCCCC(CO)NCC (stereo unspecified)
A. 192

Q. Data request, read-out CC50 at 48 h, for CCCCCCCCCCCCCCCC(N)CO (stereo unspecified)
A. 129

Q. Data request, read-out CC50 at 48 h, for CCCCCCCCCCCCCCCC(N)COCc1cc(OC)c(OC)c(OC)c1 (stereo unspecified)
A. 149

Q. Data request, read-out CC50 at 48 h, for CCCCCCCCCCCCCCCC(CNCCCCCC)NC(=O)OC(C)(C)C (stereo unspecified)
A. 86.8

Q. Data request, read-out CC50 at 48 h, for CCCCCCCCCCCCCCCC(N)COCc1ccccc1 (stereo unspecified)
A. 99.2

Q. Data request, read-out CC50 at 48 h, for CCCCc1ccc(CCCCCCCCCC(N)CO)cc1 (stereo unspecified)
A. 45.6

Q. Data request, read-out CC50 at 48 h, for CCCCCCCCCCCCCCCCCCCC(COCc1ccccc1)NCC (stereo unspecified)
A. 95.1

Q. Data request, read-out CC50 at 48 h, for CCCCCCCCCCCCCCCC(CNCCCC)NC(=O)OC(C)(C)C (stereo unspecified)
A. 136

Provide CC50 at 48 h for all items below, preserving their order.
1. CCCCCCCCCCCCCCCC(CO)N(CCCC)CCCC (stereo unspecified)
2. CCCCCCCCCCCCCCCCCC(CN)NC(=O)OC(C)(C)C (stereo unspecified)
3. CCCCCCCCCCCCCCCC(COCc1ccccc1)NCC (stereo unspecified)
4. CCCCCCCCCCCCCCCCCC(N)CO (stereo unspecified)
5. CCCCCCCCCCCCCCCCCCCC(CNCC)NC(=O)OC(C)(C)C (stereo unspecified)
6. CCCCCCCCCCCCCCCC(CNCC)NC(=O)OC(C)(C)C (stereo unspecified)
7. CCCCc1ccc(CCCCCCCC(N)CO)cc1 (stereo unspecified)

A.
[82.5, 115, 237, 200, 158, 107, 25.4]

* * *

Would you kindly list MIC for each of these molecules?
Tested on: Staphylococcus aureus
Experiment: Antibacterial activity against Staphylococcus aureus ATCC 25923 incubated for 18 hrs by resazurin dye based broth microdilution method
Type: functional
Numbers only, in µM.

Q. Query the reported MIC for Staphylococcus aureus; item: CCCCCCCCCCCCCCCC(CNCCCC)NC(=O)OC(C)(C)C (stereo not given)
A. 16

Q. Query the reported MIC for Staphylococcus aureus; item: CCCCCCCCCCCCCCCCCCCC(CNCC)NC(=O)OC(C)(C)C (stereo not given)
A. 256

Others:
Q. Query the reported MIC for Staphylococcus aureus; item: CCCCCCCCCCCCCCCC(CO)NCCCCCC (stereo not given)
A. 128

* * *

Assay: Cytotoxicity against mouse J774.A1 cells assessed as reduction in cell population incubated for 48 hrs by MTT assay
Format: toxicity, cell-based
Would you kindly list CC50 at 48 h for each of these molecules?
Write the figure, then the unit, nothing else.

Provide CC50 at 48 h for all items below, preserving their order.
1. CCCCCCCCCCCC(CO)N(CC)CC (stereo not drawn)
2. CCCCCCCCCCCC(CNCC)NC(=O)OC(C)(C)C (stereo not drawn)

A.
["17.6 µM", "20.9 µM"]

Q. Data request, read-out CC50 at 48 h, for CCCCCCCCCCCCCCCC(CO)NCCCCCCCCCC (stereo not drawn)
A. 55.3 µM

* * *

Would you kindly list MIC for each of these compounds?
Tested on: Staphylococcus aureus
Experiment: Antibacterial activity against Staphylococcus aureus ATCC 25923 incubated for 18 hrs by resazurin dye based broth microdilution method
Format: functional
Give bare numbers, in µM.

Q. Data request, read-out MIC, for CCCCCCCCCCCCCCCC(N)COCc1ccccc1 (configuration not stated)
A. 16

Q. Data request, read-out MIC, for CCCCCCCCCCCCCCCCCC(CO)NCCCC (configuration not stated)
A. 512

Q. Data request, read-out MIC, for CCCCCCCCCCCCCCCCCC(CN)NC(=O)OC(C)(C)C (configuration not stated)
A. 16

Q. Data request, read-out MIC, for CCCCCCCCCCCCCCCC(N)CO (configuration not stated)
A. 16

// below: MIC requested for another compound
Q. Data request, read-out MIC, for CCCCCCCCCCCCCCCCCC(CO)NCC (configuration not stated)
A. 32

* * *

Experiment: Cytotoxicity against mouse J774.A1 cells assessed as reduction in cell population incubated for 48 hrs by MTT assay
Assay type: toxicity, cell-based
Would you kindly list CC50 at 48 h for each of these compounds?
Write the figure, then the unit, nothing else.

Q. Data request, read-out CC50 at 48 h, for CCCCc1ccc(CCCCCC(N)CO)cc1 (configuration not stated)
A. 10.7 µM

Provide CC50 at 48 h for all items below, preserving their order.
1. CCCCCCCCCCCCCCCCCC(COCc1ccccc1)NCCCCCC (configuration not stated)
2. CCCCc1ccc(CCCCCCCCCC(N)CO)cc1 (configuration not stated)
3. CCCCc1ccc(CCCCCCCC(N)CO)cc1 (configuration not stated)
4. CCCCCCCCCCCCCCCC(N)CN (configuration not stated)
5. CCCCCCCCCCCCCCCCCC(N)COCc1ccccc1 (configuration not stated)
6. CCCCCCCCCCCC(N)CO (configuration not stated)

A.
118 µM
11.7 µM
10.6 µM
217 µM
93.3 µM
2.35 µM

* * *

Test: Cytotoxicity against African green monkey Vero cells assessed as reduction in cell population incubated for 48 hrs by MTT assay
Type: toxicity, cell-based
Conditions: chlorocebus sabaeus
Would you kindly list CC50 at 48 h for each of these compounds?
Answers are plain numbers, in µM.

Please review the following examples before continuing.
Q. Data request, read-out CC50 at 48 h, for CCCCCCCCCCCCCCCC(N)CNCC (stereo unspecified)
A. 40.1

Q. Data request, read-out CC50 at 48 h, for CCCCc1ccc(CCCCCC(N)CO)cc1 (stereo unspecified)
A. 27.8

Q. Data request, read-out CC50 at 48 h, for CCCCCCCCCCCCCCCC(CN)NC(=O)OC(C)(C)C (stereo unspecified)
A. 21.9

Q. Data request, read-out CC50 at 48 h, for CCCCCCCCCCCCCCCCCC(N)COCc1ccccc1 (stereo unspecified)
A. 138

Q. Data request, read-out CC50 at 48 h, for CCCCCCCCCCCCCCCC(CNCC)NC(=O)OC(C)(C)C (stereo unspecified)
A. 17.7

// below: CC50 at 48 h requested for another compound
Q. Data request, read-out CC50 at 48 h, for CCCCCCCCCCCCCCCCCC(CN)NC(=O)OC(C)(C)C (stereo unspecified)
A. 17.7

* * *

System: Klebsiella pneumoniae
Test: Antibacterial activity against Klebsiella pneumoniae ATCC 13883 incubated for 18 hrs by resazurin dye based broth microdilution method
Type: functional
Would you kindly list MIC for each of these compounds?

Please review the following examples before continuing.
Q. Data request, read-out MIC, for CCCCCCCCCCCCCCCC(N)COCc1ccccc1 (centres undefined)
A. 128 µM

Q. Data request, read-out MIC, for CCCCCCCCCCCCCCCCCC(N)COCc1ccccc1 (centres undefined)
A. > 512 µM

Q. Data request, read-out MIC, for CCCCCCCCCCCCCCCC(N)COCc1cc(OC)c(OC)c(OC)c1 (centres undefined)
A. 512 µM

Q. Data request, read-out MIC, for CCCCCCCCCCCCCCCCCCCC(CNCC)NC(=O)OC(C)(C)C (centres undefined)
A. > 512 µM

Q. Data request, read-out MIC, for CCCCCCCCCCCCCCCCCC(CO)N(CC)CC (centres undefined)
A. > 512 µM

Q. Data request, read-out MIC, for CCCCCCCCCCCCCCCCCCCC(COCc1ccccc1)NCC (centres undefined)
A. > 512 µM

Q. Data request, read-out MIC, for CCCCCCCCCCCCCCCCCC(CO)NCCCC (centres undefined)
A. > 512 µM

Q. Data request, read-out MIC, for CCCCCCCCCCCCCCCCCC(CN)NC(=O)OC(C)(C)C (centres undefined)
A. > 512 µM

Provide MIC for all items below, preserving their order.
1. CCCCCCCCCCCCCCCC(COCc1ccccc1)NCC (centres undefined)
2. CCCCCCCCCCCCCCCC(N)CO (centres undefined)
3. CCCCCCCCCCCCCCCCCCCC(CO)N(CC)CC (centres undefined)

A.
1: > 512 µM; 2: 512 µM; 3: > 512 µM

Provide MIC for all items below, preserving their order.
1. CCCCCCCCCCCCCCCC(CNCC)NC(=O)OC(C)(C)C (centres undefined)
2. CCCCCCCCCCCCCCCCCC(CO)NCC (centres undefined)

A.
1: 512 µM; 2: 512 µM

Q. Data request, read-out MIC, for CCCCCCCCCCCCCCCCCC(N)CO (centres undefined)
A. > 512 µM
